assay: Toxicity to unirradiated confluence-arrested U1-Mel cells; settings: human
Result Type: viability at 4 h, 4 µM

compound="CC[C@@]1(O)C(=O)OCc2c1cc1n(c2=O)Cc2cc3c(CN(C)C)c(O)ccc3nc2-1 [Topotecan]" result_type="viability at 4 h, 4 µM" result=92%
compound="CC[C@@]1(O)C(=O)OCc2c1cc1n(c2=O)Cc2cc3ccccc3nc2-1 [camptothecin]" result_type="viability at 4 h, 4 µM" result=54%

* * *

assay: in vitro; conditions: human, u1-mel cells
Result Type: viability at 5 h, 0.5 µM

compound_string=Cc1cccc2c1CCNC2=O result_type="viability at 5 h, 0.5 µM" result=92%
